The following variants are shown together with reported self-cleavage values.
B1: CPEB3 Ribozyme (parent)
chain: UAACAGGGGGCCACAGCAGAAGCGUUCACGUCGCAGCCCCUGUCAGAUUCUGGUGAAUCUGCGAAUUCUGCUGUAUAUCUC

# Variants of: B1
# measurement_description: self-cleavage, relative activity (ratio to wild type); higher = more cleavage; in vitro, sequencing

Solved cases below.
[ask] Provide measured self-cleavage value, entry: C29U U51C
[reply] 0.46

[ask] Provide measured self-cleavage value, entry: C40U A56U
[reply] 0.32

[ask] Provide measured self-cleavage value, entry: G52A U72G
[reply] 0.94

[ask] Provide measured self-cleavage value, entry: U67C C71G
[reply] 0.21

Others:
[ask] Provide measured self-cleavage value, entry: U67A U76C
[reply] 0.58

[ask] Provide measured self-cleavage value, entry: C11A U58C
[reply] 0.43

[ask] Provide measured self-cleavage value, entry: U26C U60C
[reply] 0.27
